testedSystem: ERK1 (Homo sapiens)
Sequence (P27361 whole entry): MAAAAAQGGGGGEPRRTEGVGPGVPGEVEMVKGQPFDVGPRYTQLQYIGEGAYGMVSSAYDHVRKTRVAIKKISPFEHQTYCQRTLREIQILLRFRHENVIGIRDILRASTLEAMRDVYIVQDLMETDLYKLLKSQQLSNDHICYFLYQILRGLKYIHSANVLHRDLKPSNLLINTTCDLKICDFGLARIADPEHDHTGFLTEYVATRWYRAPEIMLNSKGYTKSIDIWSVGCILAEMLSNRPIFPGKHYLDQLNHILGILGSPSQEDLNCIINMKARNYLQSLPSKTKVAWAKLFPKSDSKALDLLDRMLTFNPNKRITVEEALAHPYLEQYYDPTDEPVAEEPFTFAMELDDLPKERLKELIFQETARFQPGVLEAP
experimentNotes: ERK1/ERK2 HTRF enzymatic assay
Format: biochemical
reportedConditions: read-out: IC50 against ERK1; cell-free HTRF enzymatic assay
pIC50: −log10 of the molar value.

{"compound": "O=C(Nc1ccc2[nH]nc(-c3ccncc3)c2c1)[C@@H]1CCN(CC(=O)N2CCN(c3ccc(-c4ncccn4)cc3)CC2)C1 [SCH772984, reference compound]", "pIC50": 8.10}

* * *

Test system: BT-474
experimentNotes: Cell proliferation assay
Format: cell-based
reportedConditions: Homo sapiens, BT-474, 72 h
attributeMeasured: IC50

{"compound": "Cc1cnc(NC2CCOCC2)nc1-n1cnc(C(=O)NC(CN)c2cc(F)cc(Cl)c2)c1 (stereo not drawn)", "readoutValue": "> 10 µM"}
{"compound": "CC(C)Nc1cc(-c2c[nH]c(C(=O)N[C@H](CO)c3cccc(Cl)c3)c2)c(Cl)cn1", "readoutValue": "> 10 µM"}
{"compound": "Cn1nccc1Nc1nccc(-c2ccn([C@H](CO)c3ccc(Cl)c(F)c3)c(=O)c2)n1", "readoutValue": "> 10 µM"}

* * *

Tested on: CA46
experimentNotes: Cell viability MTS assay
Assay type: cell-based
reportedConditions: Homo sapiens, CA46, read-out: IC50 mean values

{"molecule": "Cc1cnc(NC2CCOCC2)nc1-n1cnc(C(=O)NC(CN)c2cc(F)cc(Cl)c2)c1 (stereo not shown) [ASN007]", "IC50": "> 10 µM"}

* * *

Tested on: U-2932
experimentNotes: Cell viability MTS assay
Format: cell-based
reportedConditions: Homo sapiens, U2932, read-out: IC50 mean values

{"molecule": "Cc1cnc(NC2CCOCC2)nc1-n1cnc(C(=O)NC(CN)c2cc(F)cc(Cl)c2)c1 (stereo not shown) [ASN007]", "IC50 [nM]": 2300}

* * *

testedSystem: ERK2 (Homo sapiens, UniProt P28482)
Sequence (P28482 whole entry): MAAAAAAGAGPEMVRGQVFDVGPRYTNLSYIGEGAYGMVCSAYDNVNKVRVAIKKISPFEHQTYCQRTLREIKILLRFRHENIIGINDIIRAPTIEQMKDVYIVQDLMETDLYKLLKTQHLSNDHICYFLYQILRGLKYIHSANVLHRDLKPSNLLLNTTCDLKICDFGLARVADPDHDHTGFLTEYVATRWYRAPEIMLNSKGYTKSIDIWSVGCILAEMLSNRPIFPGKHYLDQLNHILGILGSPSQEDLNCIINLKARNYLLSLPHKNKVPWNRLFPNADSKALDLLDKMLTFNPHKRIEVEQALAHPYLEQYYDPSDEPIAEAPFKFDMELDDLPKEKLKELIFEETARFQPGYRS
pIC50: −log10 of the molar value.
attributeMeasured: pIC50

{"compound": "Cc1cnc(NC2CCOCC2)nc1-n1cnc(C(=O)NC(CN)c2cc(F)cc(Cl)c2)c1 (stereo not shown)", "attributeMeasured": "pIC50", "readoutValue": 8.70}

* * *

System: A375
experimentNotes: Cell proliferation assay
Assay type: cell-based
reportedConditions: Homo sapiens, A-375, 72 h
pIC50: −log10 of the molar value.

{"molecule": "Cn1nccc1Nc1nccc(-c2ccn([C@H](CO)c3ccc(Cl)c(F)c3)c(=O)c2)n1", "pIC50": 7.01}
{"molecule": "CC(C)Nc1cc(-c2c[nH]c(C(=O)N[C@H](CO)c3cccc(Cl)c3)c2)c(Cl)cn1", "pIC50": 6.46}
{"molecule": "Cc1cnc(NC2CCOCC2)nc1-n1cnc(C(=O)NC(CN)c2cc(F)cc(Cl)c2)c1 (stereo not drawn)", "pIC50": 8.15}

* * *

Test system: 786-O
experimentNotes: Cell proliferation assay
Format: cell-based
reportedConditions: Homo sapiens, 786-0, 72 h
Listed next: entries and their corresponding IC50.

{"compound": "Cc1cnc(NC2CCOCC2)nc1-n1cnc(C(=O)NC(CN)c2cc(F)cc(Cl)c2)c1 (stereo not drawn)", "IC50": "> 10 µM"}
{"compound": "Cn1nccc1Nc1nccc(-c2ccn([C@H](CO)c3ccc(Cl)c(F)c3)c(=O)c2)n1", "IC50": "> 10 µM"}
{"compound": "CC(C)Nc1cc(-c2c[nH]c(C(=O)N[C@H](CO)c3cccc(Cl)c3)c2)c(Cl)cn1", "IC50": "> 10 µM"}

* * *

Listed next: entries and their corresponding pIC50.
Test system: PANC-1
experimentNotes: Cell proliferation assay
Type: cell-based
reportedConditions: Homo sapiens, PANC-1, 72 h
pIC50: −log10 of the molar value.

{"compound": "Cc1cnc(NC2CCOCC2)nc1-n1cnc(C(=O)NC(CN)c2cc(F)cc(Cl)c2)c1 (stereo not drawn)", "pIC50": 8.05}
{"compound": "CC(C)Nc1cc(-c2c[nH]c(C(=O)N[C@H](CO)c3cccc(Cl)c3)c2)c(Cl)cn1", "pIC50": 6.27}
{"compound": "Cn1nccc1Nc1nccc(-c2ccn([C@H](CO)c3ccc(Cl)c(F)c3)c(=O)c2)n1", "pIC50": 6.15}

* * *

Test system: NCI-H2122
experimentNotes: Cell proliferation assay
Assay type: cell-based
reportedConditions: Homo sapiens, NCI-H2122, 72 h
pIC50: −log10 of the molar value.

{"compound": "Cn1nccc1Nc1nccc(-c2ccn([C@H](CO)c3ccc(Cl)c(F)c3)c(=O)c2)n1", "valuePrefix": "<", "pIC50": 5.00}
{"compound": "CC(C)Nc1cc(-c2c[nH]c(C(=O)N[C@H](CO)c3cccc(Cl)c3)c2)c(Cl)cn1", "valuePrefix": "=", "pIC50": 5.69}
{"compound": "Cc1cnc(NC2CCOCC2)nc1-n1cnc(C(=O)NC(CN)c2cc(F)cc(Cl)c2)c1 (stereo not drawn)", "valuePrefix": "=", "pIC50": 7.82}

* * *

testedSystem: ERK1 (Homo sapiens)
experimentNotes: ERK1/ERK2 HTRF enzymatic assay
Assay type: biochemical
pIC50: −log10 of the molar value.
attributeMeasured: pIC50

{"compound": "Cc1cnc(NC2CCOCC2)nc1-n1cnc(C(=O)NC(CN)c2cc(F)cc(Cl)c2)c1 (stereo not shown)", "testedSystem": "ERK1 (Homo sapiens)", "attributeMeasured": "pIC50", "readoutValue": 8.70}

* * *

System: TMD8
experimentNotes: Cell viability MTS assay
Format: cell-based
reportedConditions: Homo sapiens, TMD8, read-out: IC50 mean values

{"compound": "Cc1cnc(NC2CCOCC2)nc1-n1cnc(C(=O)NC(CN)c2cc(F)cc(Cl)c2)c1 (stereo not shown)", "IC50 [nM]": 3000}

* * *

Tested on: HBL-1
experimentNotes: Cell viability MTS assay
Type: cell-based
reportedConditions: Homo sapiens, HBL1, read-out: IC50 mean values
pIC50: −log10 of the molar value.

{"molecule": "Cc1cnc(NC2CCOCC2)nc1-n1cnc(C(=O)NC(CN)c2cc(F)cc(Cl)c2)c1 (stereo not shown) [ASN007]", "testedSystem": "HBL-1", "pIC50": 5.13}
